Target: COX-2 (Ovis aries)
Construct: purchased Cayman Chemical Co
Sequence (P79208 17-603): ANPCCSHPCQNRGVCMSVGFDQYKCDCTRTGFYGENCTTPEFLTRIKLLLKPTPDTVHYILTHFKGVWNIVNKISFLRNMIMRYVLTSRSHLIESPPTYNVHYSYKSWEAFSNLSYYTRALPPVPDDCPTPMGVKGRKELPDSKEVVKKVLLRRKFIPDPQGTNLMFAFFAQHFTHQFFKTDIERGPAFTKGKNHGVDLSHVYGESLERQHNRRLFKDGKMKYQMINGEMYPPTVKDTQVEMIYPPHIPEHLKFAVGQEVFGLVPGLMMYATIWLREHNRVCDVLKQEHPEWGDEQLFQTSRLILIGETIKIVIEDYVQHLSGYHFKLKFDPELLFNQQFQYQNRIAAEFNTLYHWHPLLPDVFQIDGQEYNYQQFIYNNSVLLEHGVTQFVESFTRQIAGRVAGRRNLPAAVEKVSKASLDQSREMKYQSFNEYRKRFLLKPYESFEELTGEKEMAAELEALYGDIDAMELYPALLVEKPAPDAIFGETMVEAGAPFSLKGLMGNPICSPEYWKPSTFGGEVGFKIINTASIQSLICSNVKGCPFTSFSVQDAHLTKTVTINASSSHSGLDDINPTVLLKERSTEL
Assay: Inhibitory Activity on COX-2 (Assay Example 5)
Assay type: biochemical
Conditions: Table 4
VALUE KIND: COX-1/COX-2 (ratio of IC50 values)

Consider the following illustrative entries.
COc1ccc2nc(-c3cc(C(F)F)nn3-c3ccc(S(N)(=O)=O)cc3)sc2c1; > 250
NS(=O)(=O)c1ccc(-n2nc(C(F)F)cc2-c2nc3ccc(F)cc3s2)cc1; > 909
CS(=O)(=O)c1ccc(-n2nc(C(F)F)cc2-c2nc3ccc(F)cc3s2)cc1; > 2000

For each entry beneath this line, provide reported COX-1/COX-2 (ratio of IC50 values).
1. NS(=O)(=O)c1ccc(-n2nc(C(F)F)cc2-c2nc3cccc(F)c3s2)cc1
2. Cc1ccc2nc(-c3cc(C(F)F)nn3-c3ccc(S(C)(=O)=O)cc3)sc2c1

1. > 8333
2. > 769

Report COX-1/COX-2 (ratio of IC50 values) for each item below.
1. NS(=O)(=O)c1ccc(-n2nc(C(F)F)cc2-c2nc3ccccc3s2)cc1
2. CS(=O)(=O)c1ccc(-n2nc(C(F)F)cc2-c2nc3cccc(F)c3s2)cc1

1. 386
2. > 1190
